B1: TPR 5TU (parent)
chain: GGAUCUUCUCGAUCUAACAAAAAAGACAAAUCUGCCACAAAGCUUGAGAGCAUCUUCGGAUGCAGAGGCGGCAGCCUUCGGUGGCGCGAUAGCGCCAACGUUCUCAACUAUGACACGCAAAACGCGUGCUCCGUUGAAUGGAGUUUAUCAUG

# Variants of: B1
# Protocol notes: polymerase ribozyme fitness, log enrichment relative to wild type (log ratio); higher = more active; in vitro selection for triplet polymerase activity
This sample holds only a part of the variants without activity.
Measurement name: polymerase ribozyme fitness (log ratio)

• C5U G46U C85G = -2.05
• A3G G94C = -1.07
• A12G G141C = -0.0174
• U56G G59C C85G U135A = -2.51
• G68A C87U C114A U144C = -4.11
• U55G C85U C131U U134C = 1.73
• U31A C69A C95A C116G = -2
• A41G C93A G124U = -1.5
• C69U G84A A106C = -2.41
• A12U U82G = -1.49
• U102G U148A = -3.81
• U15G A17C A40C = 0.895
• G11A A17C A39C = -3.25
• U61G G86A = -2.45
• C5G G92A C96A = -3.11
• G46U G59C C96G = -3.41
• A12G G58U C116U A150G = -1.58
